Reported EC50 values follow for various compounds
# target or system: AaDOP1 (Aedes aegypti, UniProt H6D5H1)
# Sequence (H6D5H1 entry or part of it): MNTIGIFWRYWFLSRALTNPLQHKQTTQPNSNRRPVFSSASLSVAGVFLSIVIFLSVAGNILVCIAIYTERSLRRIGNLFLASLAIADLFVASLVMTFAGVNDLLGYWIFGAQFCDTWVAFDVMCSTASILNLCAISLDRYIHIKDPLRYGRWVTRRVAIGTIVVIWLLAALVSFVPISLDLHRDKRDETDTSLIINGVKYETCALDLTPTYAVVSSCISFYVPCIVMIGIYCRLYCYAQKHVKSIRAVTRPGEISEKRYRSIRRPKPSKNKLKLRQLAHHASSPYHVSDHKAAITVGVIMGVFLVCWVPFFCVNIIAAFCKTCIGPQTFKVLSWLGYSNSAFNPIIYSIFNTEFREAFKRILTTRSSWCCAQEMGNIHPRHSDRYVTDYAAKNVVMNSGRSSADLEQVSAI
# method notes: CRELuc reporter dose-response in HEK293 cells stably expressing AaDOP1
# Assay type: cell-based
Structures can show the parent of a compound that is named as a salt.
Supply the numeric figure in nM, leaving out any unit text.

compound="NC[C@H](O)c1ccc(O)c(O)c1 [Compound 106, L(-)-Norepinephrine bitartrate]" target_or_system="AaDOP1 (Aedes aegypti, UniProt H6D5H1)" val=760

Okay, next one:
Input line: Write down the reported EC50 of NCCc1ccc(O)c(O)c1 [Compound 603, Dopamine hydrochloride] , test system: AaDOP1 (Aedes aegypti, UniProt H6D5H1).
Output line: 3.1

----------
# target or system: UniProtKB H6D5H1
# method notes: CRELuc reporter dose-response in HEK293 cells stably expressing AaDOP1
# Format: cell-based
# study conditions: HEK293 cells stably expressing CRELuc reporter and AaDOP1; read-out: EC50 values AaDOP1
Reported pEC50 values follow for various molecules
Worth noting: pEC50 values are minus log10 of concentrations stated in mol/L.

Worked cases, answers included:
molecule="Oc1cc2c(cc1O)C(c1ccccc1)CNCC2 (stereo not drawn)" measurement_type=pEC50 val=6.51
molecule="Oc1cc2c(c(Cl)c1O)CCNCC2c1ccccc1 (stereo not drawn)" measurement_type=pEC50 val=7.62

Okay, next one:
Input line: # query: pEC50 of entry Oc1cc2c(cc1O)[C@H]1c3ccccc3CN[C@@H]1CC2 (racemic) [Dihydrexidine, dihydrexidine]
Output line: 8.16

----------
# target or system: human D1 dopamine receptor (hD1) (Homo sapiens)
# Construct: expressed in transfected cells
# Sequence (P21728 whole entry): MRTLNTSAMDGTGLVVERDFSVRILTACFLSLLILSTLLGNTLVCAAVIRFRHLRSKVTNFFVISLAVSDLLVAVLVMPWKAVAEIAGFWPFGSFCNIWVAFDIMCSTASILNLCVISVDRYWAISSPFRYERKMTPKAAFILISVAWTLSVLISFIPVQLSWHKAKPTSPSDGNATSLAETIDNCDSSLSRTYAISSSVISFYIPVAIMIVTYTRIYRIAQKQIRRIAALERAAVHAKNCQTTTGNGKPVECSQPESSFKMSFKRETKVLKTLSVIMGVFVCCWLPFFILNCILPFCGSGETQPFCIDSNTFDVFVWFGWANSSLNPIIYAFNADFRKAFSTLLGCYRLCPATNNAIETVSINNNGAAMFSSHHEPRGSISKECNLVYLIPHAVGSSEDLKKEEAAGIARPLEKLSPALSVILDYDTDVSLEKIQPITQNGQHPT
# method notes: cAMP accumulation secondary assay, hD1-expressing cells
# Format: cell-based
# study conditions: read-out: IC50 value (at 100 nM dopamine for hD1); 100 nM dopamine, cAMP accumulation
measurement type: IC50
Write your answer as a measured quantity: the number, then the unit.

Input line: Write down the reported IC50 of CSc1ccc2c(c1)C(N1CCN(C)CC1)Cc1ccccc1S2.O=C(O)/C=C\C(=O)O (stereo not shown) [Methiothepin, methiothepin maleate] , test system: human D1 dopamine receptor (hD1) (Homo sapiens).
Output line: 80 nM

----------
# target or system: AaDOP2 (Aedes aegypti)
# Sequence (H6D5H2 1-476): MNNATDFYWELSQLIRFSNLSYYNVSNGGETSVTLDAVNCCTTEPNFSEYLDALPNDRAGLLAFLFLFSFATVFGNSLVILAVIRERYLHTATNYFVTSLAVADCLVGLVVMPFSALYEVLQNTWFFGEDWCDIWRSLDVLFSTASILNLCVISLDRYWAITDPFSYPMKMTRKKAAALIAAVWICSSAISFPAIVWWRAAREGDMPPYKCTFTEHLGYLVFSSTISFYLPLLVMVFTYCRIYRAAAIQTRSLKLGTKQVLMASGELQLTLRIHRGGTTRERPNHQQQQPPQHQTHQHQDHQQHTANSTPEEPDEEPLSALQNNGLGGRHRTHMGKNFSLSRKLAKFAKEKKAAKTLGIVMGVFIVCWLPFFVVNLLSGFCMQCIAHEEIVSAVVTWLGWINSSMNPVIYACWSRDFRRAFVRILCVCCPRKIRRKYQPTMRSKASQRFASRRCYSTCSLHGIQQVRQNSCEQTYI
# study conditions: read-out: EC50 values AaDOP2; HEK293 cells stably expressing CRELuc reporter and AaDOP2; ≥10 µM considered lacking intrinsic activity
pEC50: −log10 of the molar value.
measurement type: pEC50

Input line: # query: pEC50 of entry Oc1cc2c(c(Cl)c1O)CCNCC2c1ccccc1 (stereo not shown)
Output line: ≤ 5.00

----------
# target or system: AaDOP2 (Aedes aegypti)
# method notes: AaDOP2 antagonist screen of the LOPAC1280 library (HEK-CRELuc-Aadop2 cells, luminescence)
# Format: cell-based
# study conditions: read-out: % of the SCH23390 effect (percent inhibition of receptor response relative to the SCH23390 control)
Where a name gives a salt, the structure may show the parent alone.
Reported inhibition at 10 µM values follow for various compounds
Supply the numeric figure in %, leaving out any unit text.

Input line: # query: inhibition at 10 µM of entry CN(C)CCCN1c2ccccc2Sc2ccc(C(F)(F)F)cc21 [Compound 1163, Triflupromazine hydrochloride]
Output line: 88

Input line: # query: inhibition at 10 µM of entry CCCCCCCCCCCCCC(=O)O[C@@H]1[C@@H](C)[C@@]2(O)[C@@H](C=C(CO)C[C@]3(O)C(=O)C(C)=C[C@@H]23)[C@@H]2C(C)(C)[C@]12OC(C)=O [Compound 976, Phorbol 12-myristate 13-acetate]
Output line: 88

Input line: # query: inhibition at 10 µM of entry Oc1ccc(/C=C/c2cc(O)cc(O)c2)cc1 [Compound 1048, Resveratrol, reference compound]
Output line: 89

Input line: # query: inhibition at 10 µM of entry CN(C)CCC=C1c2ccccc2CCc2ccccc21 [Compound 92, Amitriptyline hydrochloride]
Output line: 90

Input line: # query: inhibition at 10 µM of entry OCCN1CCN(CC/C=C2/c3ccccc3Sc3ccc(C(F)(F)F)cc32)CC1 [Compound 541, cis-(Z)-Flupenthixol dihydrochloride, reference compound]
Output line: 88
